# assay.name: Glutathione peroxidase-like activity at 10x(E -3) M concentration as NADP+/L/min
# Format: functional
Exercise: state measured Activity for each of the molecules provided.
Answer format: numeric, µM implied, no suffix.

Using known records, supply Activity for CCOC(=O)c1c2[nH]c3ccccc3c2cc2nc(C)sc12 46

Using known records, supply Activity for COc1ccc2[nH]c3c(ccc4ccsc43)c2c1 22

Using known records, supply Activity for c1ccc2c(c1)[nH]c1c3ccsc3ccc21 25

Using known records, supply Activity for COC(=O)c1cc2ccc3c(c4ccccc4n3C)c2[se]1 31

Using known records, supply Activity for COc1cccc2c1C(=O)c1[nH]c3ccccc3c1-2 29

Using known records, supply Activity for Cc1nc2ccc3[nH]c4ccccc4c3c2s1 29

Using known records, supply Activity for CS(=O)(=O)n1c2c(c3ccccc31)-c1nn[se]c1CC2 33
